Each entry below carries its recorded relative viability.
tested on: SK-ES-1; assay: relative viability vs DMSO control (72 h) (fraction); higher = more viable cells; conditions: 0.01372 µM
Structures can show the parent of a compound that is named as a salt.
Reply briefly: the number, and no unit.

Consider the compound shown here: C[C@]1(O)C[C@@H](c2nc(-c3ccc4ccc(-c5ccccc5)nc4c3)c3c(N)nccn32)C1 [Linsitinib] What is its recorded relative viability?
1.03

Consider the compound shown here: COc1cccc2c1C(=O)c1c(O)c3c(c(O)c1C2=O)C[C@@](O)(C(=O)CO)C[C@@H]3O[C@H]1C[C@H](N)[C@H](O)[C@H](C)O1 [Doxorubicin Hydrochloride] What is its recorded relative viability?
0.604

Consider the compound shown here: O=C(Nc1cnn2ccc(N3CCC[C@@H]3c3cc(F)ccc3F)nc12)N1CC[C@H](O)C1 [Larotrectinib] What is its recorded relative viability?
1.04

Consider the compound shown here: CC(C)NC(=O)C1CCC(n2c(NC(=O)c3ccc(F)cc3)nc3ccc(CN4CCC(C(C)(C)O)CC4)cc32)CC1 (centres undefined) [Belizatinib] What is its recorded relative viability?
1.05
